Test: Urinary excretion of oral sugar probes
Type: in vivo, human
Details: 0-24 hour urine collection; healthy subjects, oral cocktail; mean ± SD/SE
parameter: Percent urinary excretion of oral sugar probe (%)

INSERT INTO assay_data (compound, scale_unit, value_measured) VALUES
  ('OC[C@H]1O[C@H](O[C@]2(CCl)O[C@H](CCl)[C@@H](O)[C@@H]2O)[C@H](O)[C@@H](O)[C@H]1Cl', '%', 1.23),
  ('OC[C@H]1O[C@@H](O[C@@H]2[C@@H](CO)O[C@](O)(CO)[C@H]2O)[C@H](O)[C@@H](O)[C@H]1O', '%', 3.11),
  ('OC[C@@H](O)[C@@H](O)[C@H](O)[C@H](O)CO', '%', 28.9),
  ('OC[C@H]1O[C@@](CO)(O[C@H]2O[C@H](CO)[C@@H](O)[C@H](O)[C@H]2O)[C@@H](O)[C@@H]1O [Sucrose, α-D-glucopyranosyl-β-D-fructofuranoside]', '%', 1.82);
